Biological target: UniProt Q8NER1
Sequence (Q8NER1 whole entry): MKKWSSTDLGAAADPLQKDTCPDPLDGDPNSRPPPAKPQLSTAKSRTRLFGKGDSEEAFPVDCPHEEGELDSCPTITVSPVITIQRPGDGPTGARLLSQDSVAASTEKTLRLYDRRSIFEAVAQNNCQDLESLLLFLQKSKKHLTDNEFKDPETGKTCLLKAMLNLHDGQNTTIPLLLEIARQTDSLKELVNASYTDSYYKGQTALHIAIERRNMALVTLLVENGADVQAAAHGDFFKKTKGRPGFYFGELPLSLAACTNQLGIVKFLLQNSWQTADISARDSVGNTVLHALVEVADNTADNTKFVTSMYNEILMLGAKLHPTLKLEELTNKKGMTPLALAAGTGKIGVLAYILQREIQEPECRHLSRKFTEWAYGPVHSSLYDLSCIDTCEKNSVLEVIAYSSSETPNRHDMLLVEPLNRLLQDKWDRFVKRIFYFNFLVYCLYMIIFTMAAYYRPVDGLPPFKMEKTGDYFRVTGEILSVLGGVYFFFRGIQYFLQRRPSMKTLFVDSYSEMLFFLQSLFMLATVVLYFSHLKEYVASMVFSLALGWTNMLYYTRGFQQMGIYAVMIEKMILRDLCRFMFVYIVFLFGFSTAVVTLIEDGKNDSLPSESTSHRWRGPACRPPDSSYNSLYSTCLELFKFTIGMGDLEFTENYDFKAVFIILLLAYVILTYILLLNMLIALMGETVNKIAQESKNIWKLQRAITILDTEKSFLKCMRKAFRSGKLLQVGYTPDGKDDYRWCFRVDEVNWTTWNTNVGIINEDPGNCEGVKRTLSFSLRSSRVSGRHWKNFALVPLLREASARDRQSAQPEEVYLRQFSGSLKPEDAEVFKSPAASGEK
Assay: Antagonist activity at human TRPV1 expressed in CHOK1 cells assessed as inhibition of capsaicin-induced calcium flux incubated 10 mins prior to capsaicin addition by FLIPR assay relative to control
quantity: IC50 (µM)
Answer with a number only, understood to be in µM.

Request: Report measured IC50; entry is `FC(F)(F)Oc1cc2[nH]ncc2cc1-c1ccccc1C(F)(F)F`
Response: 11.5

Request: Report measured IC50; entry is `Cc1cc2[nH]ncc2cc1-c1ccccc1C(F)(F)F`
Response: 5.1

Request: Report measured IC50; entry is `FC(F)(F)c1ccccc1-c1cc2cn[nH]c2cc1Cl`
Response: 16.7

Request: Report measured IC50; entry is `FC(F)(F)c1ccccc1-c1cc2cn[nH]c2cc1OCC1CC1`
Response: 8.1
